Tested on: CP305
Test: qHTS profiling for inhibitors of Plasmodium falciparum proliferation (AID 504749); note: nearly all actives have a fitted effect of over 60% in size
Settings: P. falciparum in erythrocytes, SYBR Green DNA, 72 h; series mostly up to 28.7 µM
Results filed as inconclusive are left out. Activity calls are given as the source filed them. Calls come from the whole dose curve; as a rule, active = well fitted inhibition curve with a large enough effect; inconclusive = small, poorly fitted or top-dose-only effect; inactive = flat fitted curve, though single readings scatter.
Outcome codes: 1 for active, 0 for inactive

COMPOUND: Cc1ccc(S(=O)(=O)NC(=O)NC2CCCC2)cc1
ANSWER_LABEL: 0
--
COMPOUND: COc1ccccc1N1CCN(CCCCNC(=O)c2ccc(-c3ccc(C(C)=O)cc3)cc2)CC1
ANSWER_LABEL: 0
--
COMPOUND: CCCCCCCCNC(C)C(O)c1ccc(SC(C)C)cc1 (stereo unspecified)
ANSWER_LABEL: 1
--
COMPOUND: CC(=O)OC[C@H]1O[C@@H](n2ncc(=O)[nH]c2=O)[C@H](OC(C)=O)[C@@H]1OC(C)=O
ANSWER_LABEL: 0
--
COMPOUND: OC1C(O)C(O)C(O)C(O)C1O (stereo unspecified)
ANSWER_LABEL: 0
--
COMPOUND: CCCCNC(=O)NS(=O)(=O)c1ccc(N)cc1
ANSWER_LABEL: 0

----------
Tested on: GB4
Assay: qHTS profiling for inhibitors of Plasmodium falciparum proliferation (AID 504749); note: nearly all actives have a fitted effect of over 60% in size
Conditions: P. falciparum in erythrocytes, SYBR Green DNA, 72 h; series mostly up to 28.7 µM
Inconclusive results are not listed. Activity calls are given as the source filed them. Calls come from the whole dose curve; as a rule, active = well fitted inhibition curve with a large enough effect; inconclusive = small, poorly fitted or top-dose-only effect; inactive = flat fitted curve, though single readings scatter.
Possible outcomes: active, inactive

MOLECULE: NS(=O)(=O)c1cc(C(=O)O)cc(N2CCCC2)c1Oc1ccccc1
ANSWER_LABEL: inactive
//
MOLECULE: CCCCCCCCCCCCCC(=O)OC(C)C
ANSWER_LABEL: inactive
//
MOLECULE: O=C(Nc1cccc(C2=NCCN2)c1)Nc1cccc(C2=NCCN2)c1
ANSWER_LABEL: active
//
MOLECULE: FC1(F)C(F)(F)C(F)(F)C2(F)C(F)(F)C(F)(F)C(F)(F)C(F)(F)C2(F)C1(F)F (configuration not stated)
ANSWER_LABEL: inactive
//
MOLECULE: c1ccc(-c2nc[nH]c2-c2ccccc2)cc1
ANSWER_LABEL: inactive
//
MOLECULE: Cc1ccccc1OCC(O)CO (configuration not stated)
ANSWER_LABEL: inactive
//
MOLECULE: C#C[C@]1(O)CC[C@H]2[C@@H]3CCc4cc(OC)ccc4[C@H]3CC[C@@]21C
ANSWER_LABEL: inactive
//
MOLECULE: O=C(O)Cc1csc(-c2ccc(Cl)cc2)n1
ANSWER_LABEL: inactive
//
MOLECULE: COc1ccc(-c2cc(C(F)F)nn2-c2ccc(S(N)(=O)=O)cc2)cc1F
ANSWER_LABEL: inactive
//
MOLECULE: CC(=O)Nc1ccc(CC(=O)O)cc1
ANSWER_LABEL: inactive
//
MOLECULE: Oc1ccccc1C=NCc1ccccc1
ANSWER_LABEL: inactive
//
MOLECULE: CCCCNC(=O)NS(=O)(=O)c1ccc(N)cc1
ANSWER_LABEL: inactive

----------
Biological target: Vitamin D3 receptor (Homo sapiens)
Experiment: qHTS assay for small molecule antagonists of vitamin D receptor signaling (AID 588541);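 note: receptor activated by calcitriol during compound treatment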
Details: HEK293T VDR-UAS-bla, beta-lactamase ratio, antagonist mode; series mostly up to 76.7 µM
Results filed as inconclusive are left out. The source made the active and inactive calls. Calls come from the whole dose curve.

CPD_SMILES: Oc1ccc(Cl)cc1Cc1cc(Cl)ccc1O
outcome: inactive

CPD_SMILES: CC(C)(C)CC(C)(C)c1ccc(O)c(-n2nc3ccccc3n2)c1
outcome: inactive

CPD_SMILES: CCCCCCCCCCCCCCCC(=O)O
outcome: inactive
